B1: RNA-binding E3 ubiquitin-protein ligase MEX3C, residues 325 to 391; numbered along this chain, Q5U5Q3 (parent)
chain: GQTTVQVRVPYRVVGLVVGPKGATIKRIQQQTHTYIVTPSRDKEPVFEVTGMPENVDRAREEIEMHI

# Variants of: B1
# TEST_METHOD_NOTES: abundance fitness (aPCA) (normalised: wild type 0, dead -1); higher = more abundant; growth selection in yeast, the domain comes from the species named
# MEASUREMENT_CONTEXT: Homo sapiens
Class field: derived from abundance fitness; ranges LOW: < -0.6; MID: ≥ -0.6 and < -0.2; HIGH: ≥ -0.2

Sort P39C into one of the categories. MID

Next:
Hello team, could you let me know which band the following variant falls into: D42H HIGH

Continue with R27D LOW

Request: G19R LOW
